experiment: Displacement of [3H]epibatidine from alpha4beta2* nAChR in Sprague-Dawley rat brain P2 membrane after 90 mins by liquid scintillation counting; format: tissue-based
parameter: Ki

INSERT INTO measurements (structure_smiles, reported_measurement) VALUES
  ('CCCCCCCCCCn1cc(C[N+](C)(C)C)c2ccccc21', '> 10 µM'),
  ('CCCCCCCCCCCCn1cc(CCC[N+](C)(C)C)c2ccccc21', '> 10 µM'),
  ('CCCCCCCCn1cc(CCN(C)C)c2ccccc21', '> 10 µM');
